- Assay Target: Hexose transporter 1 (Plasmodium falciparum) (UniProt O97467)
- Protocol: ST_JUDE_LEISH: Cytotoxicity at 2uM final concentration against transgenic Leishmania Mexicana promastigotes LmPfHT that are glucose transport deficient and complemented with the Plasmodium falciparum hexose transporter. Activity is measured by DNA content using SYBR green in vitro
- Assay type: functional
Catalogue of inhibition readings, one per entry.
Reply numerically in %, unit not repeated.

Examples with answers:
Compound | Unit Abbreviation | inhibition
N=C(N)NN=Cc1ccc2c(c1)Cc1ccccc1-2 | % | 8.08
CC1CN(c2ccnc3ccc(Sc4ccc(Oc5ccccc5)cc4)cc23)CC(C)N1 (stereo unspecified) | % | 2.41
COc1ccc2[nH]ccc(=NN=Cc3cccc(Cl)c3)c2c1 | % | 14.8
CC1(C)CCCN(c2ncc(-c3cccc(CNCc4ccccc4O)c3)cn2)C1 | % | 2.13
CCOC(=O)Cn1ccc2c(NCc3ccccc3)nc(C)nc21 | % | 1.38
COc1ccc(CN(C)CCCc2ccc(NC(=O)c3cccc4c(O)c5ccccc5nc34)cc2)cc1OC | % | 3.71
OC(c1ccc2ccccc2c1)C1CN(CCc2ccccc2)CCC1(O)c1ccccc1 (stereo unspecified) | % | -3.49
Cc1cc(N[C@@H](Cc2ccccc2)C(=O)NCc2cccs2)nc(NCCc2ccc(F)cc2)n1 | % | 8.93

Give reported inhibition value for Cc1nc2nc(N)nc(N)c2c(C)c1Cc1ccccc1Cl 12.6

Respond only with inhibition recorded for O=C(CNc1ccncc1)c1c[nH]c2ccccc12 2.3

Please look at this compound and report its inhibition: Cc1nc(-c2nc(NCc3ccccn3)ncc2-c2ccsc2)sc1C 5.22

Note down inhibition recorded for Fc1ccc2[nH]c(-c3cccc(-c4cccc(CNCc5ccccc5)c4)c3)nc2c1 -0.96

Give inhibition for the following compound: N#Cc1ccccc1C(=O)N(Cc1cncn1Cc1cccc(F)c1)CC1CC1 10.2

Report inhibition for Cc1cc(N(C)C2CCN(C)C2)nc(Nc2ccccc2Cl)n1 (stereo unspecified) 2.69

Recall and state the measured inhibition for CC1(C)N=C(N)N=C(N)N1c1cc(Cl)c(Cl)cc1Cl . -2.74

Name the recorded inhibition of the compound listed here: O=C(NCc1ccc(Cl)cc1)c1ccc(C(=O)NCC2CCCN2CC2CCCCC2)cc1 (stereo unspecified) 1.54

Give inhibition for Cc1cccc2nc(-c3cccc(-c4ccc(NC(=O)Nc5ccc(F)c(F)c5F)cc4)c3)[nH]c12 1.47

Please supply the value of reported inhibition for the item Cc1noc(C)c1-c1cccc(CNCc2ccc(-c3cccc(-c4nc5cc(F)ccc5[nH]4)c3)cc2)c1 10.1

* * *

// reported inhibition per item
- Assay Target: Solute carrier family 2, facilitated glucose transporter member 1 (Homo sapiens)
- Protocol: ST_JUDE_LEISH: Cytotoxicity at 2uM final concentration against transgenic Leishmania Mexicana promastigotes LmGLUT1 that are glucose transport deficient and complemented with the human glucose transporter GLUT1. Activity is measured by DNA content using SYBR green in vitro
- Assay type: functional
# value in %; strip the unit string

Answered examples (2):
Compound | Reading
CS(=O)(=O)Nc1ccc2[nH]cc(C3CCN(CCCCCNC(=O)/C=C/c4ccc(Cl)c(Cl)c4)CC3)c2c1 | 3.05
CCNc1cc(C(=O)N[C@@H](Cc2ccccc2)[C@H](O)CNCCc2ccccc2)cc(N2CCCC2=O)c1 | 0.28

Consider the compound CCCOc1ccc(CCNCCCCNCCc2ccc(OCCC)c3ccccc23)c2ccccc12 and give its recorded inhibition. 101

Item COc1cc(CNC2Cc3ccccc3C2)ccc1Oc1ccc2nc[nH]c2c1 : provide inhibition 2.66

Supply measured inhibition of CCOc1ccccc1CON1C(N)=NC(N)=NC1(C)C in your reply. 4.48

Give inhibition for Cc1cccc2nc(-c3ccc(-c4cccc(NC(=O)c5cncn5C)c4)s3)[nH]c12 0.66

Fill in reported inhibition for this entry: CCCN(CCC)C(=O)c1cc(C(=O)N[C@@H](Cc2ccccc2)[C@H](O)CNC(C)(C)c2cccc(C(F)(F)F)c2)cc(N2CCCCS2(=O)=O)c1 -1.43

Specify measured inhibition for COc1ccc(OC)c2c1CCN(C)C2Cc1cccc2ccccc12 (centres undefined) . 3.52

Answer with the recorded inhibition for the compound listed here: Cc1c(CNCCCNc2nc3ccncc3[nH]2)sc(Br)c1Br 6.56

* * *

- Assay Target: Glucose transporter (Leishmania mexicana)
- Protocol: ST_JUDE_LEISH: Cytotoxicity at 2uM final concentration against transgenic Leishmania Mexicana promastigotes LmGT2 that are glucose transport deficient and complemented with the L. Mexicana glucose transporter 2. Activity is measured by DNA content using SYBR green in vitro
- Assay type: functional
Endpoint Name: inhibition (%)
Write down the numeric answer in % and omit the unit.

Molecule | inhibition (%)
Cc1[nH]c(C)c(-c2ccc(-c3cc(C(F)(F)F)cc(C(F)(F)F)c3)nc2)c(=O)c1Br | 5.42
CC1(CCc2ccccc2)N=C(N)N=C(N)C1c1ccc(Cl)c(Cl)c1 (centres undefined) | 8.62
COc1ccc(F)cc1-c1cccc(CNC2CCN(CC3Cn4c(=O)ccc5ccc(F)c3c54)CC2)c1 (centres undefined) | 18.8
Cc1ccc2c(OCCN3CCC(Cc4cc5c(cc4F)OCC(=O)N5)CC3)cc(F)cc2n1 | 3.85
Cn1nc(-c2ccc(S(=O)(=O)N3CCC(CCN4CCC(c5c[nH]c6ccccc56)CC4)CC3)s2)cc1C(F)(F)F | 2.13

Note inhibition for the molecule shown: Cc1[nH]c2ccccc2c(=O)c1Br -5.87

Give a short answer stating reported inhibition for CC(C)(Oc1c(C2CCN(CCCCNC(=O)c3ccc(-c4ccc(C#N)cc4)cc3)CC2)ccc2c1CCCC2)C(N)=O . -1.31

Return value of inhibition for input CCOc1cc(C(=O)NCc2cc(Cl)cc(Cl)c2)ccc1-c1nc2cc(Cl)ccc2[nH]1 , no commentary. 1.11

Provide measured inhibition value, entry: COc1ccc(OCCn2cc(C(=O)c3ccco3)c3ccccc32)cc1 2.42

* * *

The following compounds are shown together with reported inhibition values.
- Assay Target: Solute carrier family 2, facilitated glucose transporter member 1 (Homo sapiens) (UniProt P11166)
- Sequence (P11166 whole entry): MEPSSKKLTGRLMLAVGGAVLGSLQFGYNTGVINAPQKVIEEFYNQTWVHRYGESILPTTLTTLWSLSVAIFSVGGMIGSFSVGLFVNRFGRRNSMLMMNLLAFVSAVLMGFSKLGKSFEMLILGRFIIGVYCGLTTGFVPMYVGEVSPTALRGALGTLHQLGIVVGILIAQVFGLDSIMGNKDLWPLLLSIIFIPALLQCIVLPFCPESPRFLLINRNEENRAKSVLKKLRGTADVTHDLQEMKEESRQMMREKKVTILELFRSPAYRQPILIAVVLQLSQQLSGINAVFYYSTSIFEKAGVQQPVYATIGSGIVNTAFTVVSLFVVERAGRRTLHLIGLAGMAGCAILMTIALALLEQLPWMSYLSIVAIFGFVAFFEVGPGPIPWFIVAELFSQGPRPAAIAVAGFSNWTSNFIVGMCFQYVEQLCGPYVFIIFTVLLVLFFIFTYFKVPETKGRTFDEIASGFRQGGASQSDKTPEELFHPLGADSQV
- Protocol: ST_JUDE_LEISH: Cytotoxicity at 2uM final concentration against transgenic Leishmania Mexicana promastigotes LmGLUT1 that are glucose transport deficient and complemented with the human glucose transporter GLUT1. Activity is measured by DNA content using SYBR green in vitro
- Format: functional
Record the value in %, omitting the unit from your answer.

Take a look at these entries with their results.
Compound | Unit Abbreviation | inhibition
Cn1c(/C=C/C(=O)NC2CCC(CCN3CCc4ccc(C#N)cc4CC3)CC2)cc2ccccc21 (centres undefined) | % | 2.51
C=CCOc1ccc(C(=O)Nc2nonc2-c2ccc(OC)c(OC)c2)cc1 | % | 1
Cc1ccccc1C1CCN(c2ncc(C(=O)NC3CC3)cc2Cl)CC1 | % | -1.43
CC(C)CCN1CCCN(Cc2ccc(C(=O)NCc3ccc(Cl)cc3)cc2)CC1 | % | 2.09
Oc1ccc(CCCNc2nc(NCc3cccc4ccccc34)nc(NC3CCNCC3)n2)cc1 | % | -0.36

Give the measured inhibition for Cc1ccccc1C1CCN(C2CCC(NC(=O)/C=C/c3cccc(C(F)(F)F)c3)CC2)CC1 (centres undefined) 1.86

Tell me its inhibition given CCn1ccc2c(N3CCCC3=O)cc(C(=O)N[C@@H](Cc3ccccc3)[C@H](O)CNCc3cccc(OC)c3)cc21 as the entry. 1.06

Read off the recorded inhibition for CN1CCC(N(Cc2ccc(-c3cnc(NCc4ccccc4)nc3)cc2)S(=O)(=O)c2ccccc2)CC1 14

* * *

- Assay Target: Solute carrier family 2, facilitated glucose transporter member 1 (Homo sapiens)
- Protocol: ST_JUDE_LEISH: Cytotoxicity at 2uM final concentration against transgenic Leishmania Mexicana promastigotes LmGLUT1 that are glucose transport deficient and complemented with the human glucose transporter GLUT1. Activity is measured by DNA content using SYBR green in vitro
- Type: functional
Catalogue of inhibition readings, one per entry.
Your answer is read as %, so omit the unit and give the number.

Compound | inhibition (%)
Cc1cc(C=C2SC(=Nc3ccccc3)N(C3CCCC3)C2=O)c(C)n1-c1ccc(Cl)cc1 | 0.96

In the following, a different compound is considered.
Provide only the value of recorded inhibition for CC(C)c1ccc(C=CC(=O)N2CCC(CCN3CCC(c4c[nH]c5ccccc45)CC3)CC2)cc1 -1.34

* * *

Recorded inhibition for the following compounds
- Assay Target: Hexose transporter 1 (Plasmodium falciparum) (UniProt O97467)
- Protocol: ST_JUDE_LEISH: Cytotoxicity at 2uM final concentration against transgenic Leishmania Mexicana promastigotes LmPfHT that are glucose transport deficient and complemented with the Plasmodium falciparum hexose transporter. Activity is measured by DNA content using SYBR green in vitro
- Format: functional
A number alone suffices; assume %.

Example entries begin here.
Compound | inhibition (%)
C[C@H](NC(=O)[C@H](CCCCNC(=O)OC(C)(C)C)NC(=O)OC(C)(C)c1ccc(-c2ccccc2)cc1)C(=O)OCc1ccccc1 | 3.27
CNC(=N)c1ccc(NC(=O)c2ccc(C(=O)Nc3ccc(C(=N)NC)cc3)cc2)cc1 | 2.97
CCN1CCC(N(Cc2ccc(-c3ccc(C(F)(F)F)cc3)cc2)C(=O)Cn2nc(C)c(=O)cc2SCc2ccc(F)cc2)CC1 | 0.04

Here is another compound to look at.
Tell me its inhibition given Cn1cc(CN2CCC(OC(c3ccccc3)c3ccc(Cl)cc3)CC2)cn1 (centres undefined) as the entry. 1.66
